# Test system: SK-MEL-5
# test: Cytotoxicity against human SK-MEL-5 cells assessed as inhibition of cell growth incubated for 24 hrs by resazurin staining based analysis
# Format: functional
# condition-summary: SK-MEL-5, 24 h
Exercise: state measured IC50 for each of the molecules provided.

Measured IC50 for this entry C#C[C@]1(O)CC[C@H]2[C@@H]3CC=C4c5sc(Nc6cccnc6)nc5CC[C@]4(C)[C@H]3CC[C@@]21C on SK-MEL-5: 3 µM

Measured IC50 for this entry C#C[C@]1(O)CC[C@H]2[C@@H]3CC=C4c5sc(-c6ccc(F)cc6)nc5CC[C@]4(C)[C@H]3CC[C@@]21C on SK-MEL-5: > 20 µM

Measured IC50 for this entry C[C@]12CCc3nc(Nc4ccc(F)cc4F)sc3C1=CC[C@@H]1[C@@H]2CC[C@]2(C)C(=O)CC[C@@H]12 on SK-MEL-5: 11.5 µM

Measured IC50 for this entry C#C[C@]1(O)CC[C@H]2[C@@H]3CC=C4c5sc(Nc6cc(C)cc(C)c6)nc5CC[C@]4(C)[C@H]3CC[C@@]21C on SK-MEL-5: 3.9 µM
